The measured values listed here are drawn from patent US20220282217A1.

# ASSAYED_TARGET: HLA-A02.01 (human)
# METHOD_DESCRIPTION: competition with radiolabeled reference peptide, purified MHC I
# PROTOCOL_CONDITIONS: remark: other sources report otherwise
READOUT_TYPE: IC50 (µM)

(1) WMTETLFDI
(2) WMTETLFDIV
(3) GMNWRPILTI
Prompt: Order by IC50, smallest first, the items presented above. Your answer should be the labels, listed in the requested order.
Completion: 1, 2, 3
